System: Peritoneal macrophage
Assay: Cytotoxicity against mouse peritoneal macrophages assessed as reduction in cell viability measured after 24 hrs by Cell Titer-Blue assay
Type: functional
Overview of reported CC50 across a group of compounds:
quantity: CC50

- CCCCC(=O)Nc1ccc(S(=O)(=O)N(CC(N)=O)c2ccc(N(CC(N)=O)S(=O)(=O)c3ccc(OC)cc3)c3ccccc23)cc1: > 100 µM
- COc1ccc(S(=O)(=O)N(CC(N)=O)c2ccc(N(CC(N)=O)S(=O)(=O)c3ccc(NC(=O)CN4CCN(C(C)C)CC4)cc3)c3ccccc23)cc1: > 100 µM
- COc1ccc(S(=O)(=O)N(CC(N)=O)c2ccc(N(CC(N)=O)S(=O)(=O)c3ccc(NC(=O)CCCN4CCN(C(C)C)CC4)cc3)c3ccccc23)cc1: > 100 µM
- COc1ccc(S(=O)(=O)N(CC(N)=O)c2ccc(N(CC(N)=O)S(=O)(=O)c3ccc(NC(C)=O)cc3)c3ccccc23)cc1: > 50 µM
- COc1ccc(S(=O)(=O)N(CC(N)=O)c2ccc(N(CC(N)=O)S(=O)(=O)c3ccc(NC(=O)CN4CCSCC4)cc3)c3ccccc23)cc1: > 100 µM
- CCC(=O)Nc1ccc(S(=O)(=O)N(CC(N)=O)c2ccc(N(CC(N)=O)S(=O)(=O)c3ccc(OC)cc3)c3ccccc23)cc1: > 50 µM
- COc1ccc(S(=O)(=O)N(CC(N)=O)c2ccc(N(CC(N)=O)S(=O)(=O)c3ccc(NC(=O)CCN4CCOCC4)cc3)c3ccccc23)cc1: > 100 µM

----------
Experiment: MRT(0 to 24 hrs) in Sprague-Dawley rat at 5 mg/kg, iv measured upto 24 hrs by LC-MS analysis
Assay type: ADME, organism-based
Conditions: in vivo
quantity: MRT last at 24 h (h)

- CCN1CCN(CCC(=O)Nc2ccc(S(=O)(=O)N(CC(N)=O)c3ccc(N(CC(N)=O)S(=O)(=O)c4ccc(OC)cc4)c4ccccc34)cc2)CC1: 4.64

----------
Target: Keap1/Nrf2 (Homo sapiens, UniProt Q14145)
Sequence (Q16236 whole entry, the tested form may be a part): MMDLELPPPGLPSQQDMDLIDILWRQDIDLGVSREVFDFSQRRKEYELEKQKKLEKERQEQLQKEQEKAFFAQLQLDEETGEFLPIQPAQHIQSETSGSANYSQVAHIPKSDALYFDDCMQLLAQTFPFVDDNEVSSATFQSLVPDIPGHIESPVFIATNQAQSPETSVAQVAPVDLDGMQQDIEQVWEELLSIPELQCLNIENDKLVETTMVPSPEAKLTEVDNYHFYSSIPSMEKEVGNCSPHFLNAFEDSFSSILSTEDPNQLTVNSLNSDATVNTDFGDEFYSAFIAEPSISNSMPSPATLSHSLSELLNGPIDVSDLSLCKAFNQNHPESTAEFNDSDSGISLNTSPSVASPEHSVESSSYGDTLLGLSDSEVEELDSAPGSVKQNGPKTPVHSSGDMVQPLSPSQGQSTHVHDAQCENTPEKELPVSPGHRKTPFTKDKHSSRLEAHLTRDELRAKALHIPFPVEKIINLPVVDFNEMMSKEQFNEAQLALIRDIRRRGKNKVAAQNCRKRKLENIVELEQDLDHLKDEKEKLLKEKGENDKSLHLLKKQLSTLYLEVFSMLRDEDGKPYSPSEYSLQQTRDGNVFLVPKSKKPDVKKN
Sequence (Q14145 whole entry, the tested form may be a part): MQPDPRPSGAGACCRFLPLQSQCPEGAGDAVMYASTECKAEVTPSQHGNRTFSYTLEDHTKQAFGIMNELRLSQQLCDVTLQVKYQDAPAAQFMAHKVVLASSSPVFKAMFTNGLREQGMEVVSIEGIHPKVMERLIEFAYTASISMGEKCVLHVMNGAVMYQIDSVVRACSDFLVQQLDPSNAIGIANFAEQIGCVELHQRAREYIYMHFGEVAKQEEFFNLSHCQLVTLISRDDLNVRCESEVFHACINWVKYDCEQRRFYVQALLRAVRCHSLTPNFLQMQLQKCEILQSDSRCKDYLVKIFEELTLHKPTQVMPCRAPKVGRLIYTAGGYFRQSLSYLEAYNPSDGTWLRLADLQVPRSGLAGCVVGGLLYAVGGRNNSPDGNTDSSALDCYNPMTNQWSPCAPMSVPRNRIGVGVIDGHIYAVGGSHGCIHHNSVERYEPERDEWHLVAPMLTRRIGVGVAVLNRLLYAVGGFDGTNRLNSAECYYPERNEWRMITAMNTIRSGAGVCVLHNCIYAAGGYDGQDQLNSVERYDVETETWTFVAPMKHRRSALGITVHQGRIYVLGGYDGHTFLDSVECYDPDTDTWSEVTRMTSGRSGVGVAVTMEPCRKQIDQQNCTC
Assay: Inhibition of recombinant N-terminal His6-tagged human Keap1-Nrf2 (322 to 609 residues) (unknown origin) protein-protein interaction expressed in Escherichia coli (DE3) incubated for 60 mins by fluorescence anisotropy assay
pKd: −log10 of the molar value.
Entry flag: true if pKd reaches 6; false if it does not.

- COc1ccc(S(=O)(=O)N(CC(N)=O)c2ccc(N(CC(N)=O)S(=O)(=O)c3ccc(NC(C)=O)cc3)c3ccccc23)cc1: false
- COc1ccc(S(=O)(=O)N(CC(N)=O)c2ccc(N(CC(N)=O)S(=O)(=O)c3ccc(NC(=O)CN4CCC(C)CC4)cc3)c3ccccc23)cc1: false
- CCN1CCN(CCCC(=O)Nc2ccc(S(=O)(=O)N(CC(N)=O)c3ccc(N(CC(N)=O)S(=O)(=O)c4ccc(OC)cc4)c4ccccc34)cc2)CC1: true
- CCN1CCN(CC(=O)Nc2ccc(S(=O)(=O)N(CC(N)=O)c3ccc(N(CC(N)=O)S(=O)(=O)c4ccc(OC)cc4)c4ccccc34)cc2)CC1: true
- COc1ccc(S(=O)(=O)N(CC(N)=O)c2ccc(N(CC(N)=O)S(=O)(=O)c3ccc(NC(=O)CN4CCSCC4)cc3)c3ccccc23)cc1: false
- CCC(=O)Nc1ccc(S(=O)(=O)N(CC(N)=O)c2ccc(N(CC(N)=O)S(=O)(=O)c3ccc(OC)cc3)c3ccccc23)cc1: false
- CCCC(=O)Nc1ccc(S(=O)(=O)N(CC(N)=O)c2ccc(N(CC(N)=O)S(=O)(=O)c3ccc(OC)cc3)c3ccccc23)cc1: false

----------
Assay: Aqueous solubility of the compound in PBS at pH 2 after 24 hrs by HPLC-UV analysis
Assay type: physicochemical
Overview of reported solubility at 24 h across a group of compounds:
quantity: solubility at 24 h

• Br.CCN1CCN(CCC(=O)Nc2ccc(S(=O)(=O)N(CC(N)=O)c3ccc(N(CC(N)=O)S(=O)(=O)c4ccc(OC)cc4)c4ccccc34)cc2)CC1 = 1460 µg/mL
• CCN1CCN(CCC(=O)Nc2ccc(S(=O)(=O)N(CC(N)=O)c3ccc(N(CC(N)=O)S(=O)(=O)c4ccc(OC)cc4)c4ccccc34)cc2)CC1 = 902 µg/mL
• CCN1CCN(CCC(=O)Nc2ccc(S(=O)(=O)N(CC(N)=O)c3ccc(N(CC(N)=O)S(=O)(=O)c4ccc(OC)cc4)c4ccccc34)cc2)CC1.Cl = 1570 µg/mL
• COc1ccc(S(=O)(=O)N(CC(N)=O)c2ccc(N(CC(N)=O)S(=O)(=O)c3ccc(N)cc3)c3ccccc23)cc1 = 47.5 µg/mL
• CCN1CCN(CCC(=O)Nc2ccc(S(=O)(=O)N(CC(N)=O)c3ccc(N(CC(N)=O)S(=O)(=O)c4ccc(OC)cc4)c4ccccc34)cc2)CC1.O=C(O)CC(O)(CC(=O)O)C(=O)O = 1030 µg/mL
• CC(=O)O.CCN1CCN(CCC(=O)Nc2ccc(S(=O)(=O)N(CC(N)=O)c3ccc(N(CC(N)=O)S(=O)(=O)c4ccc(OC)cc4)c4ccccc34)cc2)CC1 = 926 µg/mL

----------
Test: Cmax in Sprague-Dawley rat at 5 mg/kg, iv measured upto 24 hrs by LC-MS analysis
Format: ADME, organism-based
Parameters: dose 5 mg/kg, time < 24 hrs, route iv
Details: in vivo
quantity: Cmax (ng/mL)

* CCN1CCN(CCC(=O)Nc2ccc(S(=O)(=O)N(CC(N)=O)c3ccc(N(CC(N)=O)S(=O)(=O)c4ccc(OC)cc4)c4ccccc34)cc2)CC1 | 2630

----------
Test: Oral bioavailability in Sprague-Dawley rat at 20 mg/kg measured upto 24 hrs by LC-MS analysis
Format: ADME, organism-based
Details: in vivo
quantity: bioavailability

* CCN1CCN(CCC(=O)Nc2ccc(S(=O)(=O)N(CC(N)=O)c3ccc(N(CC(N)=O)S(=O)(=O)c4ccc(OC)cc4)c4ccccc34)cc2)CC1 | 19.9%

----------
Assay: Tmax in Sprague-Dawley rat at 5 mg/kg, iv measured upto 24 hrs by LC-MS analysis
Format: ADME, organism-based
Settings: in vivo
quantity: Tmax (min)

- CCN1CCN(CCC(=O)Nc2ccc(S(=O)(=O)N(CC(N)=O)c3ccc(N(CC(N)=O)S(=O)(=O)c4ccc(OC)cc4)c4ccccc34)cc2)CC1: 43.2

----------
Target: Keap1/Nrf2 (Homo sapiens, UniProt Q14145)
Test: Inhibition of recombinant N-terminal His6-tagged human Keap1-Nrf2 (322 to 609 residues) (unknown origin) protein-protein interaction expressed in Escherichia coli (DE3) incubated for 60 mins by fluorescence anisotropy assay
pKd: −log10 of the molar value.
quantity: pKd

* COc1ccc(S(=O)(=O)N(CC(N)=O)c2ccc(N(CC(N)=O)S(=O)(=O)c3ccc(NC(=O)CCN4CCC(C)CC4)cc3)c3ccccc23)cc1 | 5.68
* COc1ccc(S(=O)(=O)N(CC(N)=O)c2ccc(N(CC(N)=O)S(=O)(=O)c3ccc(NC(=O)CN4CCCCC4)cc3)c3ccccc23)cc1 | 5.18
* COc1ccc(S(=O)(=O)N(CC(N)=O)c2ccc(N(CC(N)=O)S(=O)(=O)c3ccc(NC(=O)CCCN4CCSCC4)cc3)c3ccccc23)cc1 | 5.53
* CCN1CCN(CCC(=O)Nc2ccc(S(=O)(=O)N(CC(N)=O)c3ccc(N(CC(N)=O)S(=O)(=O)c4ccc(OC)cc4)c4ccccc34)cc2)CC1 | 6.68
* COc1ccc(S(=O)(=O)N(CC(N)=O)c2ccc(N(CC(N)=O)S(=O)(=O)c3ccc(NC(=O)CCN4CCSCC4)cc3)c3ccccc23)cc1 | 5.54
* COc1ccc(S(=O)(=O)N(CC(N)=O)c2ccc(N(CC(N)=O)S(=O)(=O)c3ccc(NC(=O)CCN4CCN(C(C)C)CC4)cc3)c3ccccc23)cc1 | 6.15

----------
Test: Half life in Sprague-Dawley rat at 20 mg/kg, IG measured upto 24 hrs by LC-MS analysis
Type: ADME, organism-based
Settings: in vivo, po
quantity: half-life (h)

• CCN1CCN(CCC(=O)Nc2ccc(S(=O)(=O)N(CC(N)=O)c3ccc(N(CC(N)=O)S(=O)(=O)c4ccc(OC)cc4)c4ccccc34)cc2)CC1 = 10.9

----------
Assay: Aqueous solubility of the compound in PBS at pH 7 after 24 hrs by HPLC-UV analysis
Format: physicochemical
quantity: solubility at 24 h

* CCN1CCN(CCC(=O)Nc2ccc(S(=O)(=O)N(CC(N)=O)c3ccc(N(CC(N)=O)S(=O)(=O)c4ccc(OC)cc4)c4ccccc34)cc2)CC1.O=C(O)CC(O)(CC(=O)O)C(=O)O | 129 µg/mL
* CCN1CCN(CCC(=O)Nc2ccc(S(=O)(=O)N(CC(N)=O)c3ccc(N(CC(N)=O)S(=O)(=O)c4ccc(OC)cc4)c4ccccc34)cc2)CC1.Cl | 151 µg/mL
* Br.Br.COc1ccc(S(=O)(=O)N(CC(N)=O)c2ccc(N(CC(N)=O)S(=O)(=O)c3ccc(N)cc3)c3ccccc23)cc1 | 58.6 µg/mL
* Br.CCN1CCN(CCC(=O)Nc2ccc(S(=O)(=O)N(CC(N)=O)c3ccc(N(CC(N)=O)S(=O)(=O)c4ccc(OC)cc4)c4ccccc34)cc2)CC1 | 170 µg/mL
* CCN1CCN(CCC(=O)Nc2ccc(S(=O)(=O)N(CC(N)=O)c3ccc(N(CC(N)=O)S(=O)(=O)c4ccc(OC)cc4)c4ccccc34)cc2)CC1.O=C(O)C(F)(F)F | 135 µg/mL
* CCN1CCN(CCC(=O)Nc2ccc(S(=O)(=O)N(CC(N)=O)c3ccc(N(CC(N)=O)S(=O)(=O)c4ccc(OC)cc4)c4ccccc34)cc2)CC1.O=C(O)/C=C\C(=O)O | 122 µg/mL
* COc1ccc(S(=O)(=O)N(CC(N)=O)c2ccc(N(CC(N)=O)S(=O)(=O)c3ccc(N)cc3)c3ccccc23)cc1 | 55.4 µg/mL
